# target-desc: pooled human IgG (human IgG1, 2, 3 and 4)
// reported Enzyme Activity Endpoint Assay: scIgG for each item listed
Enter your answer as a number in ng/µL; do not include the unit.

{"columns": ["protein", "reported"],
 "data": [
  ["PRT-471 (protein) MVTSVWTKGVTPPTDFIYGEDVLHAPYKAGQGWYDITKAFDGGDDLLCGAATAGNMLHWWFDQNKEQIENYLKKHPEKQKINFNGEQMFDVKEAIDTKDSQTNSELFNYFKEKAFPYLSTKHLGVFPDHVIDMFINGYRLSLTNHGPTPVKRGSKDPRGGIFDAVFTRGDQSKLLTNRHDFKEKTLKEISDLIKQELTEGKALGISHTYANVRINHVINLWGADFDAEGNLEAIYVTDSDSNASIGMKKYFVGVNSNGKVAISAKEIEEDNIGAQVLGLFTLSTGQDIWNQTNLEHHHHHH", 0],
  ["PRT-481 (protein) MVTSVWTKGVTPPTDFIYGEDVLHAPYKAGQGWYDITKAFDGGDDLLCGAATAGNMLHWWFDQNKEQIENYLKKHPEKQKINFNGEQMFDVKEAIDTKDSQTNSELFNYFKEKAFPYLSTKHLGVFPDHVIDMFINGYRLSLTNHGPTPVKRQEKDPRGGIFDAVFGRGDQTKLLTNRHDLKNKTLKEISDLIKQELTEGKALGISHTYANVRINHVINLWGADFDAEGNLEAIYVTDSDSNASIGMKKYFVGVNSNGKVAISAKEIEEDNIGAQVLGLFTLSTGQKIWNKTNLEHHHHHH", 0],
  ["PRT-567 (protein) MANQEIRYSEETPSTITSVWTKGVTPPTDFIQNEDVLHAPYIANQGWYDITKTFNGKDDLLCGAATAGNMLHWWFDQNKEQIENYLKKHPEKQKINFNGEQMFDVKEAIDTKDSQTDSALFEYFKDKAFPYLSTKHLGVFPDHVIDMFINGYRLSLTNHGPTPVKRGTKDPRGGIFDAVFTRGDQSKLLTSRHDFKEKTLNEISDLIKQELTEGKALGLSHTYANVRINHVINLWGADFNAEGNLEAIYVTDSDSNASIGMKKYYVGVNSAGKVAISAKEIEGDNIGAQVLGLFTLSTGQDIWNQTNLEHHHHHH", 372]
]}

Supply recorded Enzyme Activity Endpoint Assay: scIgG for PRT-424 (protein) MTITSVWTKGVTPPTPEDFRYNNEDVLHAPYVANQGWYDITKTFDGKDNLLCGAATAGNMLHWWFDQNKEEIERYLKKHPEKQKIIFNNQELFDVKAAIDTKDSQTNSKLFNYFRDKAFPNLSARQLGVMPDLVLDMFINGYYLNLGKTQSTDVNRPYQDKDKRGGIFDAVFTRGDQTTLLTARHDLKNKGLNEISDLIKQELTEGKALALSHTYANVRINHVINLWGADFDAEGNLIAIYVTDSDANASIGMKKYFVGVNANGKVAISAKKIEGDNIGAQVLGLFTLSLGQDIWQKLS here.
0
